B1: MYBL2 (parent)
chain: VKKSCWTEEEDRIICEAHKVLGNR

Variants of: B1
Assay: protein stability index of a GFP-peptide fusion (GPS, HEK-293T) (PSI 1-6); higher = more stable;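 also: lentivirally expressed fusions sorted by FACS into six bins by GFP to DsRed ratio, PSI derived from sequencing read proportions per bin multiplied by bin number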
Details: c terminus: a fixed tail appended
Short version: protein stability index at least 3 is condition met, less is condition not met.

Solved cases (8 shown):
Sequence Change | Cat
R12D | condition met
E16W | condition not met
E9N | condition met
H18M | condition not met
C15R | condition met
D11S | condition not met
I13Q | condition met
E10D | condition met

Reported protein stability index at or above 3? K19R
condition met

Reported protein stability index at or above 3? R24N
condition met

Reported protein stability index at or above 3? E10T
condition not met
